Target: HCV polymerase (NS5B570n-Con1) (Hepatitis C virus genotype 1b)
Construct: contains a 21 amino acid deletion at the C-terminus relative to the full-length HCV polymerase; 6-histidine (N)
Experiment: HCV NS5B RNA Polymerase Activity
I'd be grateful if you could share measured IC50 for these entries.
Answers are plain numbers, in nM.

Dear colleague, could you please provide IC50 for the molecules listed below?
1. COc1ccc(-c2cc(C3(C#N)CC3)c(OC)c3cc(-c4ccc(NS(C)(=O)=O)cc4)cnc23)c(=O)[nH]1 [Compound I-33]
2. COc1c(CC(F)(F)F)cc(N2CCC(=O)NC2=O)c2ncc(-c3ccc(NS(C)(=O)=O)cc3)cc12 [Compound I-30]
3. COc1c(C(C)(C)C)cc(-c2cc(Cl)c(C)[nH]c2=O)c2ncc(-c3ccc(NS(C)(=O)=O)cc3)cc12 [Compound I-42]
4. COc1c(C2(C(F)F)CC2)cc(-c2ccc(C)[nH]c2=O)c2ncc(-c3ccc(NS(C)(=O)=O)cc3)cc12 [Compound I-37]
5. CC(C)(C)c1cc(-c2ccc[nH]c2=O)c2ncc(-c3ccc(NS(C)(=O)=O)cc3F)nc2c1 [Compound I-8]
6. COc1c(C(C)(C)C)cc(-c2ccc[nH]c2=O)c2ncc(N3CC(CNS(C)(=O)=O)C3)c(Cl)c12 [Compound I-22]
7. COc1c(C(C)(C)C)cc(-c2ccc(C)[nH]c2=O)c2ncc(N3CC[C@H](CNS(C)(=O)=O)C3)cc12 [Compound I-46]

// result
[3.8, 17, 0.6, 9.9, 4, 44, 0.9]
